test: Measurement of optical properties of the agents (absorbance and fluorescence emission); assay type: physicochemical; conditions: in DMSO; nerve labeling agents
MEASURE_NAME: Emission Maximum (nm)

# TEST_SMILES, MEASURE_NAME, ASSAY_VALUE
rows = [
    ("COc1cc(/C=C/C2=CC(=C(C#N)C#N)C=C(C)O2)ccc1NCc1ccc(N)cc1", "Emission Maximum", 642),
    ("CC1=CC(=C(C#N)C#N)C=C(/C=C/c2ccc(N(CCO)CCO)cc2)O1", "Emission Maximum", 623),
    ("CC1=CC(=C(C#N)C#N)C=C(/C=C/c2ccc(N)cc2)O1", "Emission Maximum", 607),
    ("COc1cc(/C=C/C2=CC(=C(C#N)C#N)C=C(C)O2)ccc1N", "Emission Maximum", 631),
    ("CC1=CC(=C(C#N)C#N)C=C(/C=C/c2ccc(NCCO)cc2)O1", "Emission Maximum", 618),
]
